Give IC50 for every item shown.
biological target: NS3-NS4 protease (full-length NS3/NS4A-2) (Hepatitis C virus genotype 1a, UniProt P27958); construct: Recombinant E. coli or Baculovirus full-length NS3 was diluted to 3.33 μM with assay buffer; made in house; host or cells: E. coli or baculovirus (insect cells); test: NS3-NS4 protease assay / NS3 inhibition assay (RETS1 substrate, fluorescence kinetic read); format: biochemical; details: read-out: NS3-NS4 IC50
Sequence (P27958 1027-1657): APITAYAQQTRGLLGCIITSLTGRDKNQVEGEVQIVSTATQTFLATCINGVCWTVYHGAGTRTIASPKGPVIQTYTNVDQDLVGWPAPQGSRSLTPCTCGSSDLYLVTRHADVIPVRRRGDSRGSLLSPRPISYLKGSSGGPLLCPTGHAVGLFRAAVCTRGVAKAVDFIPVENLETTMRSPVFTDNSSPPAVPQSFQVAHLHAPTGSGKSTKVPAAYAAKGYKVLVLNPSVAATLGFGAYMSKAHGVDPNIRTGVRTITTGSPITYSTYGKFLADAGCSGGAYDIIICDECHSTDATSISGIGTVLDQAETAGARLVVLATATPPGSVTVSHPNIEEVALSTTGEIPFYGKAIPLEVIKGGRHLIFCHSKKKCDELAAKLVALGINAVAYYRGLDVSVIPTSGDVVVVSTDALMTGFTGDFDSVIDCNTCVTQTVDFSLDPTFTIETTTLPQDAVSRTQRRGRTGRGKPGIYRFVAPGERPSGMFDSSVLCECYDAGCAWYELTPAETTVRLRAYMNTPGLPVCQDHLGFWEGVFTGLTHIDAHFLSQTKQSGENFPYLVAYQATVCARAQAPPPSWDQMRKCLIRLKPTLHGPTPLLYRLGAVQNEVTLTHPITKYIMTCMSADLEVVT

Task: Indicate the recorded IC50 value for this compound: CC(C)(C)OC(=O)N[C@H]1CCCCC/C=C\[C@@H]2C[C@@]2(C(=O)NS(=O)(=O)c2cccc3ccccc23)NC(=O)[C@@H]2CCCN2C1=O
Result: < 10 µM

Task: Indicate the recorded IC50 value for this compound: CC(C)CNS(=O)(=O)NC(=O)[C@@]12C[C@H]1/C=C\CCCCC[C@H](NC(=O)OC(C)(C)C)C(=O)N1CCC[C@H]1C(=O)N2
Result: < 0.1 µM

Task: Indicate the recorded IC50 value for this compound: O=C1N[C@]2(C(=O)NS(=O)(=O)C3CC3)C[C@H]2/C=C\CCCCC[C@H](NCc2ccc(CO)o2)C(=O)N2C[C@H](OC(=O)N3Cc4cccc(F)c4C3)C[C@@H]12
Result: < 0.1 µM

Task: Indicate the recorded IC50 value for this compound: CC(C)(C)OC(=O)N[C@H]1CCCCC/C=C\[C@@H]2C[C@@]2(C(=O)NS(=O)(=O)c2ccccc2)NC(=O)[C@@H]2CCCN2C1=O
Result: < 10 µM

Task: Indicate the recorded IC50 value for this compound: CC(C)(C)OC(=O)NC1CCCCCC=CC2CC2(C(=O)NS(=O)(=O)c2ccccc2Cl)NC(=O)C2CCCN2C1=O (stereo not drawn)
Result: < 10 µM

Task: Indicate the recorded IC50 value for this compound: CC(C)(C)OC(=O)N[C@H]1CCCOC/C=C\[C@@H]2C[C@@]2(C(=O)NS(=O)(=O)C2CC2)NC(=O)[C@@H]2C[C@@H](OC(=O)N3Cc4cccc(F)c4C3)CN2C1=O
Result: < 10 µM

* * *

biological target: NS3-NS4 protease (full-length NS3/NS4A-2) (Hepatitis C virus genotype 1a); construct: Recombinant E. coli or Baculovirus full-length NS3 was diluted to 3.33 μM with assay buffer; made in house; host or cells: E. coli or baculovirus (insect cells); assay: NS3-NS4 protease assay / NS3 inhibition assay (RETS1 substrate, fluorescence kinetic read); format: biochemical; details: read-out: NS3-NS4 IC50
pIC50: −log10 of the molar value.
Give pIC50 for every item shown.

Task: Indicate the recorded pIC50 value for this molecule: CC(C)(C)OC(=O)N[C@H]1CCCCC/C=C\[C@@H]2C[C@@]2(C(=O)NS(=O)(=O)C2(C)CC2)NC(=O)[C@@H]2C[C@@H](OC(=O)N3Cc4ccccc4C3)CN2C1=O [Compound 100]
Result: > 7.00

Task: Indicate the recorded pIC50 value for this molecule: CC(C)(C)OC(=O)N[C@H]1CCCCC/C=C\[C@@H]2C[C@@]2(C(=O)NS(=O)(=O)c2cnccc2Cl)NC(=O)[C@@H]2CCCN2C1=O [Compound 2128]
Result: > 5.00

Task: Indicate the recorded pIC50 value for this molecule: CC(C)(C)OC(=O)NC1CCCCCC=CC2CC2(C(=O)NS(=O)(=O)C(F)(F)F)NC(=O)C2CCCN2C1=O (stereo not drawn) [Compound 2107]
Result: > 6.00
